Cited source: BindingDB's records for doi:10.1016/j.bmc.2006.10.050

Target: Serine/threonine-protein kinase PLK3 (Homo sapiens, UniProt Q9H4B4)
Sequence (Q9H4B4 whole entry): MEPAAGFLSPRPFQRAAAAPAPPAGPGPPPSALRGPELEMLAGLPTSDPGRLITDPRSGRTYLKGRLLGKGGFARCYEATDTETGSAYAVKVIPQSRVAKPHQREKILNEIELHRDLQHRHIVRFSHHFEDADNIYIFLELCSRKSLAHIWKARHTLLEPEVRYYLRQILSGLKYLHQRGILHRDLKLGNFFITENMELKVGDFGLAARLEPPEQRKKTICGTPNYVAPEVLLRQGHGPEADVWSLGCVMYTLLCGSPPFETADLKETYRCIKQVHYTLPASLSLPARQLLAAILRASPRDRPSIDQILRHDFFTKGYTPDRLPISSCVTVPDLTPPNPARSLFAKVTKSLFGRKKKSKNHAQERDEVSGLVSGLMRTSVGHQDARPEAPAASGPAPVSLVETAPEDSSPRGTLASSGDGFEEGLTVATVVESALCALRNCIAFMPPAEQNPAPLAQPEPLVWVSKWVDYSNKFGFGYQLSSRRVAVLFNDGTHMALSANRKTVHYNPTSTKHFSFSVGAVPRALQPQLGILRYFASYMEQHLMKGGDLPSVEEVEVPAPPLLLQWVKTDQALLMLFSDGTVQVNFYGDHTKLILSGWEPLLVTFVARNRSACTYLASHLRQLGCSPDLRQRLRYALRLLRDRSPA
pIC50: −log10 of the molar value.
property_measured: pIC50

compound: CC(=O)C(C#N)C(=O)Nc1cc(Br)ccc1Br (stereo unspecified)
study_system: Serine/threonine-protein kinase PLK3 (Homo sapiens, UniProt Q9H4B4)
property_measured: pIC50
measured_result: 4.21

====

Biological target: Cyclin-A2/Cyclin-dependent kinase 2 (Homo sapiens, UniProt P24941)
Experiment: Kinase Selectivity Assay
pIC50: −log10 of the molar value.
property_measured: pIC50

compound: CC(=O)C(C#N)C(=O)Nc1cc(Br)ccc1Br (stereo unspecified)
measured_result: < 3.30

====

Biological target: Serine/threonine-protein kinase Chk1 (Homo sapiens, UniProt O14757)
Sequence (O14757 whole entry): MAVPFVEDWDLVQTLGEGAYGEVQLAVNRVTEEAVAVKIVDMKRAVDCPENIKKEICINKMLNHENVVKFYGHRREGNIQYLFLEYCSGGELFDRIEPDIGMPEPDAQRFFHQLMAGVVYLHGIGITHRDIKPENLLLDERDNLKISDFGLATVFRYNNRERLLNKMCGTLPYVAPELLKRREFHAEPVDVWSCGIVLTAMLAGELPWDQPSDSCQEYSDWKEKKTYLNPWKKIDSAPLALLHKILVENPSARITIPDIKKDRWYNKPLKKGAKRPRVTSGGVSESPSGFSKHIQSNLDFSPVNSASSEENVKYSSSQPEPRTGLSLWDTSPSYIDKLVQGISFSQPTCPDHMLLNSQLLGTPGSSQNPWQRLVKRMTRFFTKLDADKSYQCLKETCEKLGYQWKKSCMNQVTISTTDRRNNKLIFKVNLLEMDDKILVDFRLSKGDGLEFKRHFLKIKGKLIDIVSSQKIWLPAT
pIC50: −log10 of the molar value.

compound: CC(=O)C(C#N)C(=O)Nc1cc(Br)ccc1Br (stereo unspecified)
study_system: Serine/threonine-protein kinase Chk1 (Homo sapiens, UniProt O14757)
pIC50: < 3.30

====

Biological target: Tyrosine-protein kinase Fyn (Homo sapiens, UniProt P06241)
Sequence (P06241 whole entry): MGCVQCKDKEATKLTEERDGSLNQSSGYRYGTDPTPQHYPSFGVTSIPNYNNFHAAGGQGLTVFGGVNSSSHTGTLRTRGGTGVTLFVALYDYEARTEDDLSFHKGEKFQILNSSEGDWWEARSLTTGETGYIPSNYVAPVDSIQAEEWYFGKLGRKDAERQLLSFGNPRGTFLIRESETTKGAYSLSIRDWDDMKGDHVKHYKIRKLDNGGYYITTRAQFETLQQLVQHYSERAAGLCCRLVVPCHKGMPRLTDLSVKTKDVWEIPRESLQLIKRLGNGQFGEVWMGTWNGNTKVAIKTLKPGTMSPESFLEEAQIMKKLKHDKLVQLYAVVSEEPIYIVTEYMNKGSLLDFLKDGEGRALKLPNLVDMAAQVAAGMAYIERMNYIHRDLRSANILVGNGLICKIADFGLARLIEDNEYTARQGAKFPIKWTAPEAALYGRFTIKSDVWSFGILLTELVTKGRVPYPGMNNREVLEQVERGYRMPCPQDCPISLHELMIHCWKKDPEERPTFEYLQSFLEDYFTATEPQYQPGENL
pIC50: −log10 of the molar value.

compound: CC(=O)C(C#N)C(=O)Nc1cc(Br)ccc1Br (stereo unspecified)
pIC50: 3.62

====

Biological target: Cyclin-dependent kinase/G2/mitotic-specific cyclin- 1 (Homo sapiens)
Sequence (P06493 whole entry): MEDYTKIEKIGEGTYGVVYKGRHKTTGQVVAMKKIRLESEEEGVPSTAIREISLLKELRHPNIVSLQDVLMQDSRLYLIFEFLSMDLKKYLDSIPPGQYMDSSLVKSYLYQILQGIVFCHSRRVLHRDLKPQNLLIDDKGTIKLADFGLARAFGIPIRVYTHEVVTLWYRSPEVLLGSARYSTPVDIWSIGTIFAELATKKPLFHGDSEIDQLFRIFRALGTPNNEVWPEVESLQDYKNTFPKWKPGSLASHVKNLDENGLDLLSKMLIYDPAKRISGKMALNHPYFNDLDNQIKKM
Sequence (P14635 whole entry, further chain): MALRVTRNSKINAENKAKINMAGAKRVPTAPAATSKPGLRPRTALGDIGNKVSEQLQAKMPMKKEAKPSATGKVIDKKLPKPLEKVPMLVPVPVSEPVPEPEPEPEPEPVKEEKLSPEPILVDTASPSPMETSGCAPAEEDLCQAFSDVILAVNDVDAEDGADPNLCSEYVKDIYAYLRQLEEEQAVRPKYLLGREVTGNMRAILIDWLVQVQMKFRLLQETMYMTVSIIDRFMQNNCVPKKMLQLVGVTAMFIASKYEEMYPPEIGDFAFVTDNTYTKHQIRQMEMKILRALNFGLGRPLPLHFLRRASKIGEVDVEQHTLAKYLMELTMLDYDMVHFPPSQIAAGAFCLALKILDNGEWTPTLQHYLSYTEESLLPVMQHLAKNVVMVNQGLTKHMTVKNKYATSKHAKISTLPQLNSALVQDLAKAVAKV
property_measured: IC50

compound: CC(=O)C(C#N)C(=O)Nc1cc(Br)ccc1Br (stereo unspecified)
property_measured: IC50
measured_result: > 500 µM
